- Tgt: GRK2 (Homo sapiens, UniProt P25098)
- Sequence (P25098 1-689): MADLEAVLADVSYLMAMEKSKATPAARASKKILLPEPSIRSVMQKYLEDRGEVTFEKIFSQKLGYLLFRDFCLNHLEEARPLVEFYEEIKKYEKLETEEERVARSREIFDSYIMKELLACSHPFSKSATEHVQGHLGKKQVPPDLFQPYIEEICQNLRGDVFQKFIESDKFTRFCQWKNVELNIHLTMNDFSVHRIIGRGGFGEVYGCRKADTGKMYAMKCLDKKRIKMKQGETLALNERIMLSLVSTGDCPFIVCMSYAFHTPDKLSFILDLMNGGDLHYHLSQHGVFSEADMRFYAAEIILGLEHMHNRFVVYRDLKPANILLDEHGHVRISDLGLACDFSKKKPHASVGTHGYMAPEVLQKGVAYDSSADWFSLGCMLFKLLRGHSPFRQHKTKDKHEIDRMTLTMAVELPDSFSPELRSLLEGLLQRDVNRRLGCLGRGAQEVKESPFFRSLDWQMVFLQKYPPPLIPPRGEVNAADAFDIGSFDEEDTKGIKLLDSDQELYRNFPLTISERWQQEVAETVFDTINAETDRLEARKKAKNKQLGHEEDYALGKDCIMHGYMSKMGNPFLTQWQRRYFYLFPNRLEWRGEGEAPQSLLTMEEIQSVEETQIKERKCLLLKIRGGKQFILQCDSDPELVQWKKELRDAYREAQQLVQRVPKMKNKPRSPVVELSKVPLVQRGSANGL
- Assay Overview: GRK2 Degradation Assay and Western Blot in PAXF1657 cells
- Format: cell-based
- Design: endogenous in cells; host or cells: PAXF1657
- Run Parameters: 1 uM, PAXF1657 EV, 24 hrs; read-out: % GRK2 degradation at 1 uM in PAXF1657 EV (24 hrs)
Quantity: inhibition at 1 µM (%)

Consider the reported inhibition at 1 µM for these molecules:
Molecule	Quantity	Test Result
C[C@@H](NC(=O)c1cccc(NCc2nnc(-c3ccncn3)n2C)c1)c1cccc(OCCCCCCOCCOCCOCCCCCC(=O)Nc2cccc3c2CN(C2CCC(=O)NC2=O)C3=O)c1 (stereo partly drawn) [Compound D57]	inhibition at 1 µM	82
Cn1c(CNc2cccc(C(=O)NCc3cccc(OCCCCCCOCCOCC(=O)Nc4cccc5c4CN(C4CCC(=O)NC4=O)C5=O)c3)c2)nnc1-c1ccncn1 (stereo not drawn) [Compound D72]	inhibition at 1 µM	59

1 = Cn1c(CNc2cccc(C(=O)NCc3cccc(OCCCCCOCCCOCC(=O)Nc4cccc5c4CN(C4CCC(=O)NC4=O)C5=O)c3)c2)nnc1-c1ccncn1 (stereo not drawn) [Compound D64]
2 = Cc1ncsc1-c1ccc(CNC(=O)[C@@H]2C[C@@H](O)CN2C(=O)[C@@H](NC(=O)CCCCCOCCOCCOCCCCCCOc2ccc(C(F)(F)F)c(CNC(=O)c3cccc(NCc4nnc(-c5ccncn5)n4C)c3)c2)C(C)(C)C)cc1 [Compound D92]
3 = Cn1c(CNc2cccc(C(=O)NCc3cccc(OCCCCCCC(=O)NCCOCCOCCOCCC(=O)Nc4cccc5c4CN(C4CCC(=O)NC4=O)C5=O)c3)c2)nnc1-c1ccncn1 (stereo not drawn) [Compound D114]
4 = Cn1c(CNc2cccc(C(=O)NCc3cccc(OCCCCCCCn4cc(CCCC(=O)Nc5cccc6c5CN(C5CCC(=O)NC5=O)C6=O)nn4)c3)c2)nnc1-c1ccncn1 (stereo not drawn) [Compound D61]
(Q) Reorder the items by inhibition at 1 µM, least to greatest. Return value: ordered labels per request.
(A) 2, 3, 4, 1

P = Cn1c(CNc2cccc(C(=O)NCc3cccc(OCCCCCCn4cc(CCCCC(=O)Nc5cccc6c5CN(C5CCC(=O)NC5=O)C6=O)nn4)c3)c2)nnc1-c1ccncn1 (stereo not drawn) [Compound D62]
Q = CC(NC(=O)c1cccc(NCc2nnc(-c3ccncn3)n2C)c1)c1cccc(OCCCCCCOCCOCCOCCCCCC(=O)Nc2cccc3c2CN(C2CCC(=O)NC2=O)C3=O)c1 (stereo not drawn) [Compound D67]
(Q) // returns P or Q , whichever has the lower inhibition at 1 µM State your choice using its label.
(A) P

---

- Tgt: GRK2 (Homo sapiens, UniProt P25098)
- Assay Overview: GRK2 Degradation Assay and Western Blot in PAXF1657 cells
- Assay type: cell-based
- Set-up: endogenous in cells; host or cells: PAXF1657
- Run Parameters: 0.3 uM, PAXF1657 EV, 24 hrs; read-out: % GRK2 degradation at 0.3 uM in PAXF1657 EV (24 hrs)
Quantity: inhibition at 0.3 µM (%)

Consider the reported inhibition at 0.3 µM for these compounds:
Compound	Unit Info	inhibition at 0.3 µM
Cn1c(CNc2cccc(C(=O)NCc3cccc(OCCCCCCn4cc(CCCC(=O)Nc5cccc6c5CN(C5CCC(=O)NC5=O)C6=O)nn4)c3)c2)nnc1-c1ccncn1 (centres unmarked) [Compound D63]	%	34
Cn1c(CNc2cccc(C(=O)NCc3ccc(OCCCCCCOCCOCCOCCCCCC(=O)Nc4cccc5c4CN(C4CCC(=O)NC4=O)C5=O)cc3)c2)nnc1-c1ccncn1 (centres unmarked) [Compound D65]	%	36
Cn1c(CNc2cccc(C(=O)NCc3cc(OCCCCCCOCCOCCOCCCCCC(=O)Nc4cccc5c4CN(C4CCC(=O)NC4=O)C5=O)ccc3F)c2)nnc1-c1ccncn1 (centres unmarked) [Compound D66]	%	40

1 = Cc1ncsc1-c1ccc(CNC(=O)[C@@H]2C[C@@H](O)CN2C(=O)[C@@H](NC(=O)CCCCCCOc2cccc(CNC(=O)c3cccc(NCc4nnc(-c5ccncn5)n4C)c3)c2)C(C)(C)C)cc1 [Compound D96]
2 = Cc1ncsc1-c1ccc(CNC(=O)[C@@H]2C[C@@H](O)CN2C(=O)[C@@H](NC(=O)CCCCCOCCOCCOCCCCCCOc2cccc(C(C)NC(=O)c3cccc(NCc4nnc(-c5ccncn5)n4C)c3)c2)C(C)(C)C)cc1 (some centres unmarked) [Compound D91]
(Q) // returns 1 or 2 , whichever has the lower inhibition at 0.3 µM State your choice using its label.
(A) 1
(1: 19%, 2: 42%)

---

- Tgt: GRK2 (Homo sapiens)
- Sequence (P25098 1-689): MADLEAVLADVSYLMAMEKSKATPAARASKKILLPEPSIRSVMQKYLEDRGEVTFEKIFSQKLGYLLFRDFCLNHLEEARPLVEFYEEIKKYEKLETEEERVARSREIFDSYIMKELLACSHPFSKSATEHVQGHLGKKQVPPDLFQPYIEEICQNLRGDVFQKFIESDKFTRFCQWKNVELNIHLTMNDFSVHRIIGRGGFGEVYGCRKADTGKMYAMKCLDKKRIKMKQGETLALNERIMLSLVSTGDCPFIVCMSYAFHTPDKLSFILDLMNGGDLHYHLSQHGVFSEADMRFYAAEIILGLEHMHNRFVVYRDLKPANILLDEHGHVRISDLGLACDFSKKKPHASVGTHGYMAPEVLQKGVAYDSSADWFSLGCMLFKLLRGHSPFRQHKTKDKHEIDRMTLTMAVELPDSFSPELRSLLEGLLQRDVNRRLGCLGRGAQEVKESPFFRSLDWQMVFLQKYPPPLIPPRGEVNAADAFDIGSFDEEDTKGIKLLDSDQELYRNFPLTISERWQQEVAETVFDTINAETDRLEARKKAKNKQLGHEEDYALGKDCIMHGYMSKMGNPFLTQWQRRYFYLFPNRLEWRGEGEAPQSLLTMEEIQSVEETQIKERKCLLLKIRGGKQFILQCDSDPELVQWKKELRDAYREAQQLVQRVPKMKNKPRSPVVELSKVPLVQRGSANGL
- Assay Overview: GRK2 Degradation Assay and Western Blot in PAXF1657 cells
- Format: cell-based
- Set-up: endogenous in cells; host or cells: PAXF1657
- Run Parameters: Conc 1 uM; read-out: Degradation Assay - 3 point: Degradation (%)
Quantity: inhibition at 1 µM (%)

a = Cc1ncsc1-c1ccc(CNC(=O)[C@@H]2C[C@@H](O)CN2C(=O)[C@@H](NC(=O)CCCCOCCOCCOCCCCCCOc2cccc(CNC(=O)c3cccc(NCc4nnc(-c5ccncn5)n4C)c3)c2)C(C)(C)C)cc1
b = Cc1ncsc1-c1ccc(CNC(=O)[C@@H]2C[C@@H](O)CN2C(=O)[C@@H](NC(=O)COCCCOCCCCCOc2ccc3c(c2)[C@H](NC(=O)c2cccc(NCc4nnc(-c5ccncn5)n4C)c2)CCO3)C(C)(C)C)cc1
(Q) Compare the recorded inhibition at 1 µM of a and b ; state which is larger. State your choice using its label.
(A) a

---

- Tgt: GRK2 (Homo sapiens)
- Sequence (P25098 1-689): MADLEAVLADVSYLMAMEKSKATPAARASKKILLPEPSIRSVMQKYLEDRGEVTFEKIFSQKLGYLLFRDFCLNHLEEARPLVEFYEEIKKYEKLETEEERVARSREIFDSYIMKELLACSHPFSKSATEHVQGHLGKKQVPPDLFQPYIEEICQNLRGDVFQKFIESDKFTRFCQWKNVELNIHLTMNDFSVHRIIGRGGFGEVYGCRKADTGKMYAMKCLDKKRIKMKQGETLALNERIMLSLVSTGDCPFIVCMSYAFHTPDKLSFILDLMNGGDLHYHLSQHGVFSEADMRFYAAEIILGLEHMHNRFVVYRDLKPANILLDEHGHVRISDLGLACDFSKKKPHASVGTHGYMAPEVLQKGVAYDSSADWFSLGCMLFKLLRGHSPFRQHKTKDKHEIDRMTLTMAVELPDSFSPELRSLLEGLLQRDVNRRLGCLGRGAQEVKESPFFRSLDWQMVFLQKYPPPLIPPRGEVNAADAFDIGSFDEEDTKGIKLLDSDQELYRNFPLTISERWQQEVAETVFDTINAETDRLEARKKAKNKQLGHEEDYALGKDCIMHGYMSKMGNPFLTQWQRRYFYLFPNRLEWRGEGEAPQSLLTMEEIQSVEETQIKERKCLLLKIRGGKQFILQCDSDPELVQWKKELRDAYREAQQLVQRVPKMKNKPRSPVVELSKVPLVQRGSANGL
- Assay Overview: GRK2 Degradation Assay and Western Blot in PAXF1657 cells
- Assay type: cell-based
- Design: endogenous in cells; host or cells: PAXF1657
- Run Parameters: Conc 1 uM; read-out: Degradation Assay - 3 point: Degradation (%)
Where a name gives a salt, the structure may show the parent alone.
Quantity: inhibition at 1 µM (%)

Molecule	Quantity	Test Result
C[C@@H](NC(=O)c1cccc(NCc2nnc(-c3ccncn3)n2C)c1)c1cccc(OCCCCCCOCCOCC(=O)N2CCN(c3ccc4c(c3)CN(C3CCC(=O)NC3=O)C4=O)CC2)c1 (some centres unmarked) [Compound D138, hydrochloride]	inhibition at 1 µM	92

I = C[C@@H](NC(=O)c1cccc(NCc2nnc(-c3ccncn3)n2C)c1)c1cccc(C(=O)N2CC(N3CCN(c4ccc5c(c4)CN(C4CCC(=O)NC4=O)C5=O)CC3)C2)c1 (some centres unmarked)
II = C[C@@H](NC(=O)c1cccc(NCc2nnc(-c3ccncn3)n2C)c1)c1cccc(OCCCCCCn2cc(CCCC(=O)Nc3cccc4c3CN(C3CCC(=O)NC3=O)C4=O)nn2)c1 (some centres unmarked)
III = C[C@@H](NC(=O)c1cccc(NCc2nnc(-c3ccncn3)n2C)c1)c1ccc(OCCCCCCOCCOCCOCCC(=O)N2CCN(c3cc4c(cc3F)C(=O)N(C3CCC(=O)NC3=O)C4=O)CC2)cc1 (some centres unmarked)
IV = C[C@H](NC(=O)c1cccc(NCc2nnc(-c3ccncn3)n2C)c1)c1cccc(OCCCCCCOCCOCC(=O)Nc2cccc3c2CN(C2CCC(=O)NC2=O)C3=O)c1 (some centres unmarked)
(Q) Reorder the items by inhibition at 1 µM, least to greatest. Return value: ordered labels per request.
(A) I, IV, II, III
